Value source: the supplement of paper PMC9170038

- Test system: MS2 coat protein
- assay: apparent KD of MS2 coat protein, switch OFF state (with FMN for OFF switches, without FMN for ON switches); designed switch direction (-1 OFF switch, 1 ON switch): 1; higher = weaker reporter binding
- assay_conditions: FMN input: 0 or 200 uM; Eterna round: R93 (includes R88 designs)
Please enter 1.0 where apparent KD of MS2 coat protein is greater than or equal to 80 nM, and 0.0 where it is lower.

{"monomer_sequence": "CCCUCGCAAUAACAGGAUAUACAUGGUCAAACAUGAGGAUCACCCAUGUGAGGAAGUUGGCGGUCGUAGAAGGGUUGUUGGCUCA [Beisvesoqu]", "discrete_label": 1.0}
{"monomer_sequence": "GAGGACCUAGGAUAGGAUAUGUGAAUAAUUACAUGAGGAUCACCCAUGUCCAUUUAUAUGGGAACAUAGAAGGGUUCUGGUUAUC [SameState2 Malc#38]", "discrete_label": 0.0}
{"monomer_sequence": "GAUAAACAUGAGGAUCACCCAUGUAGAUAUAUGGGAGGAUAUACAAAGACGAUAGUCAAAGUAGAAGGCCUAAUAG [77%, Mat - Mod of Eli - With 4 more U's]", "discrete_label": 1.0}
{"monomer_sequence": "AUAAAACAUGAGGAUCACCCAUGUAGAAAUAUGGGAGGAUAUACUAGAUCGAAAGAUCUAGUAGAAGGCCUUUAAG [JL Mod of Eli 4]", "discrete_label": 0.0}
{"monomer_sequence": "AGGAAACAUGAGGAUCACCCAUGUAAGAUAAACACAGGAUAUGCGAAAAGAAACAAAGAAGCAGAAGGGUGGAGAA [75%, Ex5 sub 1, 3]", "discrete_label": 0.0}
{"monomer_sequence": "AAAACACAUGAGGAUCACCCAUGUAGAAAUACGGGAGGAUAUGCGAAAACGAAAGACAAAGCAGAAGGCCUAAAAG [saturn 6]", "discrete_label": 0.0}
{"monomer_sequence": "AAAAAAAAAAGUGAGGAUAUGGGAAAAUUAACAUGAGGAUCACCCAUGUGAUAAAAAAAAAAAAACCAGAAGGUACAAAAAAAAAA [Same 2]", "discrete_label": 0.0}
{"monomer_sequence": "AAUAUACAUGAGGAUCACCCAUGUUUUAAUAGCUGAGGAUAUACGGGUGAAAACAGCAUAGUAGAAGGCGGGUGUA [SameState1 Malc#8]", "discrete_label": 1.0}
{"monomer_sequence": "AUAAAACAUGAGGAUCACCCAUGUAGAAAUAUGGGAGGAUAUACGAGGACGAAAGUCAAAGUAGAAGGCCUAAAAG [Mat - Same State 1 - Meechl mod - D120]", "discrete_label": 0.0}
{"monomer_sequence": "AUGAAUAGCAUCGAGGAUAUCCAGUCAUGAACAUGAGGAUCACCCAUGUAAGAGAGAGUAUAAUGGGAGAAGGCGAGUAAUCGAU [JR_SS002_Sub1703]", "discrete_label": 1.0}
{"monomer_sequence": "AAAAGACAUGAGGAUCACCCAUGUAAAAACAUAGGAGGAUAUGUCUUGAAAAAAGACUUGACAGAAGGCCUUUGUC [SS1 - 52]", "discrete_label": 0.0}
{"monomer_sequence": "AAACUGGAGGACAAGGAUAUGUGCUCUACGACAUGAGGAUCACCCAUGUGAGACGUAGUAGUGAAACAGAAGGUGUCCUAUUGUA [Tiarri]", "discrete_label": 0.0}
{"monomer_sequence": "CUUUCCGCGCUAUAGGAUAUGAAUGAACCUACAUGAGGAUCACCCAUGUCGAACUCGGUCCAAAAUCAGAAGGAUGGCGAGGCGC [Oratis]", "discrete_label": 1.0}

* * *

- System: MS2 coat protein
- assay: apparent KD of MS2 coat protein; designed switch direction (-1 OFF switch, 1 ON switch): -1; higher = weaker reporter binding
- assay_conditions: Eterna round: R95; input ligand: microRNA oligo, concentration not stated
# reported apparent KD of MS2 coat protein; entries follow

{"monomer_sequence": "GGUACUAACACGAAAGUGUUAGUACAAUAAGCUUGUGAAACAUGAGGAUCACCCAUGUCCUCAUAAGCUCGUCUUAG [salish99_TOv2_r3_005] (puzzle: Sensor v3, turn-off variant 2)", "apparent KD of MS2 coat protein, nM": 392}
{"monomer_sequence": "AGAUGGCGAGGAUAUACAUGAGGAUCACCCAUGUGAAGAUAAUAAGUGAGGAAGAAAAGUAGAAGGCGCUGUCA [Mat - Exclusion 3 - Mod of Salish D26] (puzzle: Exclusion 3)", "apparent KD of MS2 coat protein, nM": 72.6}
{"monomer_sequence": "GCCAGAGCAGGAUAUUCAAUAUUCCACAUGAGGAUCACCCAUGUCCUGCGAAAGCAGGAGGGAGAAGGGCUCUGGC [Mat - Exclusion 5 - Eli mod - D91] (puzzle: Exclusion 5)", "apparent KD of MS2 coat protein, nM": 56.2}
{"monomer_sequence": "AAGAAACAUGAGGAUCACCCAUGUGAGGAUAUGUAAAAUAAAAGAAAAGAAAGAAGAAACAGAAGGCACAAAGG [Mat - Mod of Hog D13] (puzzle: Exclusion 1)", "apparent KD of MS2 coat protein, nM": 35.4}
{"monomer_sequence": "CGGUACUGAGGAUAUACAUGAGGAUCACCCAUGUGUUCAAGCUAGCGUACUGGCAUUAGUAGAAGGCGGUGCUG [JL-ex3-3.21 Brourd mod] (puzzle: Exclusion 3)", "apparent KD of MS2 coat protein, nM": 14.6}

* * *

- Tested on: MS2 coat protein
- assay: apparent KD of MS2 coat protein; designed switch direction (-1 OFF switch, 1 ON switch): 1; higher = weaker reporter binding
- assay_conditions: Eterna round: R95; input ligand: FMN 200 uM
assay_endpoint: apparent KD of MS2 coat protein (nM)

{"monomer_sequence": "AAUUAUUAACAUGAGGAUCACCCAUGUAUUAUUAUUAACAAGCUUUGCUCUACAUGGGUGCUCGUCUUAUUUAUUAA [AthenaIerokomos] (puzzle: Sensor for hsa-mir-208a version 2)", "assay_endpoint": "apparent KD of MS2 coat protein", "val": 13.7}
{"monomer_sequence": "GAGUAGGAGUUACAGGAUAUAUGGAGGUGGACAUGAGGAUCACCCAUGUGAGAGAUGAGAGGAGGAUAGAAGGGUAAGGGAGUAA [JR_SS2_Sub029] (puzzle: Same State 2)", "assay_endpoint": "apparent KD of MS2 coat protein", "val": 189}
{"monomer_sequence": "AGUCCAGCCUGAGCUGGACAAAAGUAUGUACAUGAGGAUCACCCAUGUCAUGUACAAGCUUUUUGCUCGUUUUAAUA [Zipper 49 - 17] (puzzle: Sensor for hsa-mir-208a)", "assay_endpoint": "apparent KD of MS2 coat protein", "val": 424}
{"monomer_sequence": "AGUCCAGCCUGAGCUGGACAAAAGCAUGUACAUGAGGAUCACCCAUGUUAUGUACAAGCUUUUUGCUCGUUUUAAUA [Zipper 49 - 15] (puzzle: Sensor for hsa-mir-208a)", "assay_endpoint": "apparent KD of MS2 coat protein", "val": 191}
{"monomer_sequence": "AAAAGUUGCGGGCAGGAUAUGUAUUAAAAUACAUGAGGAUCACCCAUGUGCGGGUAUAACACCCGACAGAAGGGCCAAUCGCGAC [Mat - Same State 2 - Mod of UCT - D95] (puzzle: Same State 2)", "assay_endpoint": "apparent KD of MS2 coat protein", "val": 29.6}

* * *

- System: K4 kissing-loop RNA reporter;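 further: bound reporter read as fluorescence of individual clusters on recovered sequencing chips by microscopy, with normalized cluster intensities fitted with a binding model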
- assay: apparent KD of K4 kissing-loop reporter; higher = weaker reporter binding
- assay_conditions: Eterna round: R107; input ligand: none
# reported apparent KD of K4 kissing-loop reporter; entries follow
assay_endpoint: apparent KD of K4 kissing-loop reporter (nM)

{"monomer_sequence": "AGGUACAAAAGUACCGCUAGAUCCACGGAAGGAGCGGCCGAAAGGCCAGGUAGGUCGCCGGGCAGUGAUGUUGCCGGAUCUAGCA [Omei KL Arginine A SS A v2]", "study_target": "K4 kissing-loop RNA reporter", "assay_endpoint": "apparent KD of K4 kissing-loop reporter", "unit_string": "nM", "val": 200}
{"monomer_sequence": "GGGAGUAGUGCGGCCGCCACUGAGAAAGAAGAAGAAUAUAGUGAUGUUAUAUAGGAAGGGAAGAACAGGACCGGGCAUUAGAUUU [SSTRyptB.Y]", "study_target": "K4 kissing-loop RNA reporter", "assay_endpoint": "apparent KD of K4 kissing-loop reporter", "unit_string": "nM", "val": 380}
{"monomer_sequence": "GGAUCCACCAGUGAUGUUGGAGAAAACUCCAAGGAUAUGACGAAAGUCAGAAGGUGGUAGACUGGACAAAGUCCGGUAGGAUCCA [FmnA10 A78]", "study_target": "K4 kissing-loop RNA reporter", "assay_endpoint": "apparent KD of K4 kissing-loop reporter", "unit_string": "nM", "val": 360}
